Listing: CC50 of selected compounds
experiment: Cytotoxicity against human CEM/0 cells assessed as reduction in cell proliferation incubated for 4 to 5 days; details: CEM/0 cells
Supply the numeric figure in µM, leaving out any unit text.

compound	unit descriptor	CC50
CCCCCCCC(=O)Oc1ccc(COP(=O)(OCc2ccc(OC(C)=O)cc2)OP(=O)(O)OC[C@H]2O[C@@H](n3cc(C)c(=O)[nH]c3=O)C[C@@H]2N=[N+]=[N-])cc1.N (some centres not stated)	µM	29
CC(=O)Oc1ccc(COP(=O)(OCc2ccc(OC(=O)c3ccc(C(F)(F)F)cc3)cc2)OP(=O)(O)OC[C@@H]2C=C[C@H](n3cc(C)c(=O)[nH]c3=O)O2)cc1.N (some centres not stated)	µM	51
CCCCCCCCCC(=O)Oc1ccc(COP(=O)(OCc2ccc(OC(C)=O)cc2)OP(=O)(O)OC[C@@H]2C=C[C@H](n3cc(C)c(=O)[nH]c3=O)O2)cc1.N (some centres not stated)	µM	15
CCCCC(=O)Oc1ccc(COP(=O)(OCc2ccc(OC(=O)c3ccc(C(F)(F)F)cc3)cc2)OP(=O)(O)OC[C@H]2O[C@@H](n3cc(C)c(=O)[nH]c3=O)C[C@@H]2N=[N+]=[N-])cc1.N (some centres not stated)	µM	58
CCCCCCCCCCCC(=O)Oc1ccc(COP(=O)(OCc2ccc(OC(C)=O)cc2)OP(=O)(O)OC[C@@H]2C=C[C@H](n3cc(C)c(=O)[nH]c3=O)O2)cc1.N (some centres not stated)	µM	26

Query (compound): CCCCCCCC(=O)Oc1ccc(COP(=O)(OCc2ccc(OC(=O)CCCC)cc2)OP(=O)(O)OC[C@H]2O[C@@H](n3cc(C)c(=O)[nH]c3=O)C[C@@H]2N=[N+]=[N-])cc1.N (some centres not stated) ; field requested: CC50
73

Try this compound next: CCCCCCCCCCCC(=O)Oc1ccc(COP(=O)(OCc2ccc(OC(=O)CCCC)cc2)OP(=O)(O)OC[C@H]2O[C@@H](n3cc(C)c(=O)[nH]c3=O)C[C@@H]2N=[N+]=[N-])cc1.N (some centres not stated)
36

Try this compound next: CCCCCCC(=O)Oc1ccc(COP(=O)(OCc2ccc(OC(=O)CCCCCC)cc2)OP(=O)(O)OC[C@H]2O[C@@H](n3cc(C)c(=O)[nH]c3=O)C[C@@H]2N=[N+]=[N-])cc1.N
47

Try this compound next: CCCCC(=O)Oc1ccc(COP(=O)(OCc2ccc(OC(=O)CCCC)cc2)OP(=O)(O)OC[C@H]2O[C@@H](n3cc(C)c(=O)[nH]c3=O)C[C@@H]2N=[N+]=[N-])cc1.N
60

Try this compound next: CCCCCCCCCCCC(=O)Oc1ccc(COP(=O)(OCc2ccc(OC(C)=O)cc2)OP(=O)(O)OC[C@H]2O[C@@H](n3cc(C)c(=O)[nH]c3=O)C[C@@H]2N=[N+]=[N-])cc1.N (some centres not stated)
18

Try this compound next: CC(=O)Oc1ccc(COP(=O)(OCc2ccc(OC(=O)c3ccc(C)cc3)cc2)OP(=O)(O)OC[C@@H]2C=C[C@H](n3cc(C)c(=O)[nH]c3=O)O2)cc1.N (some centres not stated)
11

Try this compound next: CCCCC(=O)Oc1ccc(COP(=O)(OCc2ccc(OC(=O)c3ccc(C)cc3)cc2)OP(=O)(O)OC[C@@H]2C=C[C@H](n3cc(C)c(=O)[nH]c3=O)O2)cc1.N (some centres not stated)
14

Try this compound next: CCCCCCCCCC(=O)Oc1ccc(COP(=O)(OCc2ccc(OC(C)=O)cc2)OP(=O)(O)OC[C@H]2O[C@@H](n3cc(C)c(=O)[nH]c3=O)C[C@@H]2N=[N+]=[N-])cc1.N (some centres not stated)
20

Try this compound next: CCCCCCCCCC(=O)Oc1ccc(COP(=O)(OCc2ccc(OC(=O)CCCC)cc2)OP(=O)(O)OC[C@@H]2C=C[C@H](n3cc(C)c(=O)[nH]c3=O)O2)cc1.N (some centres not stated)
20

Try this compound next: CCCCCCCCCC(=O)Oc1ccc(COP(=O)(OCc2ccc(OC(=O)CCCC)cc2)OP(=O)(O)OC[C@H]2O[C@@H](n3cc(C)c(=O)[nH]c3=O)C[C@@H]2N=[N+]=[N-])cc1.N (some centres not stated)
41

Try this compound next: CCCCCCCCCCCC(=O)Oc1ccc(COP(=O)(OCc2ccc(OC(=O)CCCC)cc2)OP(=O)(O)OC[C@@H]2C=C[C@H](n3cc(C)c(=O)[nH]c3=O)O2)cc1.N (some centres not stated)
30

Try this compound next: CCCCCCCC(=O)Oc1ccc(COP(=O)(OCc2ccc(OC(C)=O)cc2)OP(=O)(O)OC[C@@H]2C=C[C@H](n3cc(C)c(=O)[nH]c3=O)O2)cc1.N (some centres not stated)
33

Try this compound next: CCCCCCCCCC(=O)Oc1ccc(COP(=O)(OCc2ccc(OC(=O)CCCCCCCCC)cc2)OP(=O)(O)OC[C@H]2O[C@@H](n3cc(C)c(=O)[nH]c3=O)C[C@@H]2N=[N+]=[N-])cc1
38

Try this compound next: CC(=O)Oc1ccc(COP(=O)(OCc2ccc(OC(=O)c3ccc(C(F)(F)F)cc3)cc2)OP(=O)(O)OC[C@H]2O[C@@H](n3cc(C)c(=O)[nH]c3=O)C[C@@H]2N=[N+]=[N-])cc1.N (some centres not stated)
100

Try this compound next: CCCCC(=O)Oc1ccc(COP(=O)(OCc2ccc(OC(=O)c3ccc(C(F)(F)F)cc3)cc2)OP(=O)(O)OC[C@@H]2C=C[C@H](n3cc(C)c(=O)[nH]c3=O)O2)cc1.N (some centres not stated)
37

Try this compound next: CCCCCCCC(=O)Oc1ccc(COP(=O)(OCc2ccc(OC(=O)CCCC)cc2)OP(=O)(O)OC[C@@H]2C=C[C@H](n3cc(C)c(=O)[nH]c3=O)O2)cc1.N (some centres not stated)
66
